System: MBP-FALDR enzyme (maltose binding protein-fatty aldehyde reductase fusion protein)
Protocol Details: Continuous spectrophotometric assay of fatty aldehyde reductase activity (NADPH oxidation at 340 nm), substrate comparison and kinetics
Format: biochemical, Marinobacter aquaeolei VT8
Condition Summary: substrate 100 μg/mL, 160 μg enzyme; decanal = 85 nmols/min/mg = 100
Result Type: Relative Activity (Percent of Decanal)

>  <Molecule>
CCCC/C=C\CCCCCCCCCC=O [cis-11-hexadecenal]

>  <Readout Value>
87% of Decanal

$$$$
>  <Molecule>
CCCCCCCC=O

>  <Readout Value>
52% of Decanal

$$$$
>  <Molecule>
CCCCCCCCCCCC=O

>  <Readout Value>
55% of Decanal

$$$$
>  <Molecule>
CCCCCCCCCC=O

>  <Readout Value>
100% of Decanal

$$$$
>  <Molecule>
CCCC=O

>  <Readout Value>
<1% of Decanal

$$$$
>  <Molecule>
CCCCCC=O

>  <Readout Value>
<1% of Decanal

$$$$
>  <Molecule>
O=Cc1ccccc1

>  <Readout Value>
<1% of Decanal

$$$$
